- TESTED_ON: StOASS-A (Salmonella typhimurium)
- Construct: His6 (N, cleaved yes); made in house; host or cells: E. coli Rosetta (DE3)
- Sequence (P0A1E3 whole entry): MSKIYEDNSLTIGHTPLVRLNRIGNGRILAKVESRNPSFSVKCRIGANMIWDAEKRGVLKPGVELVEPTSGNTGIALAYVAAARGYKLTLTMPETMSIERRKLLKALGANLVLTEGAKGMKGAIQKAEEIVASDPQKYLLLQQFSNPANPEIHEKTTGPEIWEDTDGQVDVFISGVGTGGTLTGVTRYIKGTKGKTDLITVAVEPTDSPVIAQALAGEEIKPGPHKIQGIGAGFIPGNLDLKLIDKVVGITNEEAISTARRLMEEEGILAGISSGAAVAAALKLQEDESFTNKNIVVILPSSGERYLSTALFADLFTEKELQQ
- PROCEDURE_DETAILS: Fluorimetric binding titration (PLP emission), StOASS-A
- Design: species or system Salmonella enterica serovar Typhimurium
- DETAILS: LE = (1.37/HA). pIC50, HA = heavy atoms
For each of the molecules below, state its LE (OASS-A).
Give bare numbers, in kcal/mol/HA.

Consider the following illustrative entries.
>  <SMILES>
O=C(O)c1ccn[nH]1

>  <TESTED_ON>
StOASS-A (Salmonella typhimurium)

>  <UNIT_STRING>
kcal/mol/HA

>  <LE (OASS-A)>
0.67

$$$$
>  <SMILES>
O=C(O)c1ccc[nH]1

>  <TESTED_ON>
StOASS-A (Salmonella typhimurium)

>  <UNIT_STRING>
kcal/mol/HA

>  <LE (OASS-A)>
0.72

$$$$

Could you report LE (OASS-A) for every entry in the following list?
1. Cc1ccc(C[C@@]2(C(=O)O)C[C@H]2c2ccccc2)cc1
2. O=C(O)c1nccs1

Marked response:
1. 0.52
2. 0.74
